methodNotes: Inhibition of AKT phosphorylation at S473 in human BT20 cells after 1 hr by sandwich ELISA
Format: cell-based
conditionNotes: BT-20, 1 h
valueType: IC50 (nM)

Example cases with answers are listed next.
> print(dat)
                                smilesentry  val
1  COc1ccc(-c2cc3c(C)nc(N)nc3n([C@H]3CC[C@H](OCCO)CC3)c2=O)cn1   13
2  CNc1nc(C)c2cc(-c3cccc(CO)c3)c(=O)n(C3CCCC3)c2n1   15
3  COc1ccc(-c2cc3c(C)nc(N)nc3n(C3CCCC3)c2=O)cn1   16

A. COc1ccc(-c2cc3c(C)nc(N)nc3n([C@H]3CC[C@H](O)CC3)c2=O)cn1
B. COc1ccc(-c2cc3c(C)nc(N)nc3n([C@H]3CC[C@@H](O)CC3)c2=O)cn1
For the two items A and B , which reports the higher IC50 value? Selection: enter the item's label.
B
(B: 22 nM, A: 12 nM)
